Test system: Yersinia pseudotuberculosis
assay: growth AUC normalised to DMSO control (fraction of control); higher = less growth inhibition, active = hit call of the paper
condition-set: 20 µM
Where a name gives a salt, the structure may show the parent alone.
quantity: growth AUC normalised to DMSO control
Returns: the value as a bare number; no unit string appended.

A selection of reference data follows.
CCC[C@@H]1C[C@@H](C(=O)N[C@@H]([C@H]2O[C@H](SC)[C@H](O)[C@@H](O)[C@H]2O)[C@H](C)Cl)N(C)C1 [Clindamycin hydrochloride] ... 0.0588
C[C@H]1O[C@H](O[C@H]2[C@H](O)[C@@H](O)[C@@H](O[C@@H]([C@H](O)[C@@H](O)C=O)[C@H](O)CO)O[C@@H]2CO)[C@H](O)[C@@H](O)[C@@H]1N[C@H]1C=C(CO)[C@@H](O)[C@H](O)[C@H]1O ... 1.01
CNS(=O)(=O)Cc1ccc2[nH]cc(CCN(C)C)c2c1 [Sumatriptan succinate] ... 1
OCCN(CCO)c1nc(N2CCCCC2)c2nc(N(CCO)CCO)nc(N3CCCCC3)c2n1 ... 1
Nc1ccc(S(=O)(=O)Nc2nccs2)cc1 ... 1.01

Entry under test: O=C(CCCN1CCC(O)(c2ccc(Br)cc2)CC1)c1ccc(F)cc1 . Its growth AUC normalised to DMSO control was 0.997

Entry under test: COc1ccc2c(c1)N(C[C@H](C)CN(C)C)c1ccccc1S2 [Methotrimeprazine maleate salt] . Its growth AUC normalised to DMSO control was 0.99
